# study target: T1, human-CD40-monomer protein (human, UniProt P25942 21-193, limits assumed)
# T1 construct: Soluble monomer generated in house, used as SPR analyte; also called hCD40; hCD40-monomer
# T1 sequence (P25942 21-193 limits assumed): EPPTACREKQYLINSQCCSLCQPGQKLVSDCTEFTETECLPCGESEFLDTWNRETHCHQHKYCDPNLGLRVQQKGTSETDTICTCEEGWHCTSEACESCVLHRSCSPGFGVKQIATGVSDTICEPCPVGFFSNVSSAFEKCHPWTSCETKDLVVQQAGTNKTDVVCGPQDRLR
# assay name: SPR, Ab captured on protein A, hCD40 monomer 500 and 50 nM, 1:1 fit; supernatant
A collection of binders and their measured koff
Dear colleague, please return just the value in s⁻¹, with no unit written.

binder | unit spec | koff
Y12XX-hz36 (antibody, human IgG1, kappa, V domains shown, Humanized, IgG1-P238K; supernatant sample) VH: QVQLVQSGAEVKKPGSSVKVSCKASGYAFTSYWMHWVRQAPGQGLEWMGYINPTTGYSAYNQKFKDKATLTADKSTSTAYMELSSLRSEDTAVYYCARWDARPFAYWGQGTLVTVSS VL: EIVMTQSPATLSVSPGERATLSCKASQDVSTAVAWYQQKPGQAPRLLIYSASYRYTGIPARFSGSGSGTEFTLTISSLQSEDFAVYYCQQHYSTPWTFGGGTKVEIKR | s⁻¹ | 0.1

Please look at the following binder next.
Requested field: koff. Item: Y12XX-hz11 (antibody, human IgG1, kappa, V domains shown, Humanized, IgG1-P238K; supernatant sample) VH: QVQLVQSGAEVKKPGSSVKVSCKASGYAFTSYWMHWVRQRPGQGLEWIGQINPSNGRSQYNEKFKTRVTITADKSTSTAYMELSSLRSEDTAVYYCARWGLQPFAYWGQGTLVTVSS VL: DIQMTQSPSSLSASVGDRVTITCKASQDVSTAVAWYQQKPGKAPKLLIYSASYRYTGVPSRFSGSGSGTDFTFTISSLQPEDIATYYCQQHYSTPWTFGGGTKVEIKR 0.00088
